test_target: UniProt:P41145
Sequence (P41145 whole entry): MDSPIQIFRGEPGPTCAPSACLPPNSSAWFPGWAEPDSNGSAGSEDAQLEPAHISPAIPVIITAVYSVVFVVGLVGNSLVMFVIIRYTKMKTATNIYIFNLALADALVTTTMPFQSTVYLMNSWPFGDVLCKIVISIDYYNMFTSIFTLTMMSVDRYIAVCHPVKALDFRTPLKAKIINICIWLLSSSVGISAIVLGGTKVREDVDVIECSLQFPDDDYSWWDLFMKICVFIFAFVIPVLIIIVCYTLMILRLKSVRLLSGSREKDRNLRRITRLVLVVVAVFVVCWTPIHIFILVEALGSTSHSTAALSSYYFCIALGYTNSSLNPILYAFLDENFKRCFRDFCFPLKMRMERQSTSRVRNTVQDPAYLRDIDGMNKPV
assay_comment: Filtration binding assay: kappa opioid receptor
pIC50: −log10 of the molar value.
Provide the recorded pIC50 for the entries that follow.

The recorded pIC50 for O=C1N(C[C@@H](O)CN2CCc3ccccc3C2)CN(c2ccc(F)cc2)C12CCN(Cc1cc(C(F)(F)F)cc(C(F)(F)F)c1)CC2 [compound 682] is ≤ 5.00

The recorded pIC50 for CCCCN(Cc1ccccc1)C[C@H](O)CN1CN(c2ccc(F)cc2)C2(CCN(Cc3c(Cl)cccc3C(F)(F)F)CC2)C1=O [Compound #456] is < 5.00

The recorded pIC50 for O=C1N(C[C@@H](O)CNCc2cccnc2)CN(c2ccc(F)cc2)C12CCN(Cc1cc(C(F)(F)F)cc(C(F)(F)F)c1)CC2 [compound 609] is ≤ 5.00

The recorded pIC50 for Cc1cccc2cccc(CN3CCC4(CC3)C(=O)N(C[C@H](O)CN)CN4c3ccc(F)cc3)c12 [Compound #438] is < 5.00
